half-life reference
# experiment: in vitro
# applied_conditions: 50% plasma, pH 7.4
endpoint: half-life

record_smiles	result
C=CCN(CC=C)C(=O)COC(=O)c1ccccc1	0.08 min
O=C(OCC(=O)N1CCOCC1)c1ccccc1	4.9 min
CC(C)CN(CC(C)C)C(=O)COC(=O)c1ccccc1	< 1.5 min
O=C(OCC(=O)N1CCCC1)c1ccccc1	5.7 min
CN(C)C(=O)CCOC(=O)c1ccccc1	5.6 min
O=C(OCC(=O)N(C1CCCCC1)C1CCCCC1)c1ccccc1	407 min

* * *

Consider the following molecules and their measured S, solubility in water readings.

molecule	unit_tag	S, solubility in water
C=CCN(CC=C)C(=O)COC(=O)c1ccccc1	µg/mL	710
CCN(CC)C(=O)COC(=O)c1ccccc1 [Example 10, 2-(benzoyloxy)-N,N-diethylacetamide]	µg/mL	2000
O=C(OCC(=O)N(CCO)CCO)c1ccccc1	µg/mL	720000
CCCCN(CCCC)C(=O)COC(=O)c1ccccc1	µg/mL	80

* * *

# experiment: Hydrolysis of ester prodrugs in human plasma solutions (HPLC)
# applied_conditions: 80% plasma, pH 7.4
Note to self: values exactly at 5 min are satisfied. So half-life at or above 5 min is satisfied, below is not satisfied.

compound	cat
CCOC(=O)[C@@H](N)Cc1ccc(O)cc1 [L-Tyrosine ethyl ester, reference compound]	satisfied
COC(=O)Cc1c(C)n(C(=O)c2ccc(Cl)cc2)c2ccc(OC)cc12 [Indomethacin methyl ester, reference compound]	satisfied
CCN(CC)C(=O)COC(=O)CCC(=O)c1ccc(-c2ccccc2)cc1 [Example 61]	not satisfied
CCN(CC)C(=O)COC(=O)C(C)c1cccc(C(=O)c2ccccc2)c1 (centres unmarked) [Example 56]	not satisfied
COC(=O)c1ccc(O)cc1 [4-Hydroxybenzoic acid methyl ester, reference compound]	satisfied
COC(=O)CCC(=O)c1ccc(-c2ccccc2)cc1 [Fenbufen methyl ester, reference compound]	satisfied
CCOC(=O)c1ccc(N)cc1 [4-Aminobenzoic acid ethyl ester, reference compound]	satisfied

* * *

Quick list: solubility per entry.
# experiment: Solubility in water or aqueous solutions
# applied_conditions: water

molecule	qual	solubility / µg/mL
O=C(OCC(=O)N1CCCC1)c1ccccc1	=	6300
O=C(OCC(=O)N1CCCCC1)c1ccccc1	=	780
CN(C)CCN(C)C(=O)COC(=O)c1ccccc1 [Example 23a]	>	100000
O=C(OCC(=O)N1CCOCC1)c1ccccc1	=	4200
CN1CCN(C(=O)COC(=O)c2ccccc2)CC1	>	100000
O=C(OCC(=O)N1CCCCCC1)c1ccccc1	=	750
O=C(OCC(=O)N1CCCC1=O)c1ccccc1	=	490
O=C(OCC(=O)N(CCO)CCO)c1ccccc1 [Example 17]	>	700000
O=C(OCC(=O)N1CCC1)c1ccccc1	=	5400
CC1CCCC(C)N1C(=O)COC(=O)c1ccccc1 (stereo not shown)	=	150
CN(C)CC(=O)OCCN(C)C(=O)COC(=O)c1ccccc1 [R1=CH3, R2=CH2CH2OOCCH2N(CH3)2, n=1]	>	200000
NC(=O)[C@@H]1CCCN1C(=O)COC(=O)c1ccccc1	=	1500
CC(C)CN(CC(C)C)C(=O)COC(=O)c1ccccc1 [Example 15]	=	81

* * *

Each item that follows carries a reported log10 of half-life.
# experiment: Hydrolysis of ester prodrugs in human plasma solutions (HPLC)
# applied_conditions: 50% plasma, pH 7.4
endpoint: log10 of half-life (log10 of the value in min)

compound	log10 of half-life
O=C(OCC(=O)N1CCCC1=O)c1ccccc1	1.26
O=C(OCC(=O)N1CCCCCC1)c1ccccc1	0.00
O=C(OCC(=O)N1CCCCC1)c1ccccc1	0.40
O=C(OCC(=O)N1CCC1)c1ccccc1	-0.08
O=C(OCC(=O)N1CCC(O)CC1)c1ccccc1	0.76
CC1CCCC(C)N1C(=O)COC(=O)c1ccccc1 (stereo not drawn)	-0.40
NC(=O)[C@@H]1CCCN1C(=O)COC(=O)c1ccccc1	0.36
CN1CCN(C(=O)COC(=O)c2ccccc2)CC1	1.10
CN(C)CC(=O)OCCN(C)C(=O)COC(=O)c1ccccc1 [R1=CH3, R2=CH2CH2OOCCH2N(CH3)2, n=1]	-1.10
COC(=O)[C@@H]1CCCN1C(=O)COC(=O)c1ccccc1	0.28
CCN(C)C(=O)COC(=O)c1ccccc1 [Example 9]	-1.00
COCCN(CCOC)C(=O)COC(=O)c1ccccc1 [Example 23b]	-0.60
